B1: Storkhead-box protein 2, residues 64 to 141; numbered along this chain, Q9P2F5 (parent)
chain: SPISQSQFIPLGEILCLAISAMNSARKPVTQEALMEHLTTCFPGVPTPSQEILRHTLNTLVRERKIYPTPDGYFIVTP

Variants of: B1
Experiment: abundance fitness (aPCA) (normalised: wild type 0, dead -1); higher = more abundant; growth selection in yeast, the domain comes from the species named
Conditions: Homo sapiens
Label rule, in plain words: abundance fitness of -0.1 and up is True, under -0.1 is False.

Please tell me: is the variant SPISQSQFIPLGEILCLAISAMNSARKPVTQEALMEHLTTCFPGVPTPSQEILRHTLNTLVRERPIYPTPDGYFIVTP [K65P] at or over -0.1 in terms of abundance fitness?
False

Could you please find out whether SPISQSQFRPLGEILCLAISAMNSARKPVTQEALMEHLTTCFPGVPTPSQEILRHTLNTLVRERKIYPTPDGYFIVTP [I9R] has abundance fitness that meets -0.1 or exceeds it?
True

Could you tell me if the measured abundance fitness of SPISQSQFIPLGEILCLAISAMNPARKPVTQEALMEHLTTCFPGVPTPSQEILRHTLNTLVRERKIYPTPDGYFIVTP [S24P] reaches -0.1 or more?
False

Record SPISQSQFIPLGEILCLAISAMNSARKPVTQEALMEHLTTCFPGVPTPSQEIRRHTLNTLVRERKIYPTPDGYFIVTP [L53R] ; criterion: abundance fitness no lower than -0.1. Met?
False

Form field: abundance fitness at least -0.1? Entry: SPISQSQFIPLGEILCLAISAMNSARKPVTQEALMEHLTTCFPGVPTPSQEILRHTLNTLVRERCIYPTPDGYFIVTP [K65C]
False
